tested on: HCV 1b_Huh-Luc/Neo-ET cell line persistently expressing a bicistronic genotype 1b replicon in Huh 7 cells; test: HCV replicon assay (luciferase readout); assay type: cell-based; details: Hepatitis C virus, Huh-7, 72 h, read-out: Inhibition of HCV genotype 1b
Field: EC50. Provide a value for each of the compounds that follow.

Sample C[C@@H]1OC(=O)N[C@H]1C(=O)N1CCC[C@H]1c1ncc(-c2ccc(C#Cc3ccc(-c4cnc([C@@H]5CCCN5C(=O)[C@@H]5NC(=O)O[C@H]5C)[nH]4)cc3)cc2)[nH]1 ; EC50 observed: 10 to 999 nM

Sample O=C(N[C@@H](C(=O)N1CCC[C@H]1c1ncc(-c2ccc(C#Cc3ccc(-c4cnc([C@@H]5CCCN5C(=O)[C@@H](c5ccccc5)N5CCCCC5)[nH]4)cc3)cc2)[nH]1)c1ccccc1)N1CCOCC1 ; EC50 observed: < 1 nM

Sample COC(=O)N[C@H](Cc1ccccc1)C(=O)N1CCC[C@H]1c1ncc(-c2ccc(C#Cc3ccc(-c4cnc([C@@H]5CCCN5C(=O)[C@H](NC(=O)OC)c5ccccc5)[nH]4)cc3)cc2)[nH]1 ; EC50 observed: < 1 nM

Sample COC(=O)N[C@@H](C(=O)N1CCC[C@H]1c1ncc(-c2ccc(C#Cc3ccc(-c4cnc([C@@H]5CCCN5C(=O)NCc5ccccc5)[nH]4)cc3)cc2)[nH]1)c1ccccc1 ; EC50 observed: < 1 nM

Sample CN(C)[C@@H](C(=O)N1CCC[C@H]1c1ncc(C#Cc2ccc(C#Cc3cnc([C@@H]4CCCN4C(=O)[C@@H](c4ccccc4)N(C)C)[nH]3)cc2)[nH]1)c1ccccc1 ; EC50 observed: < 1 nM

Sample COC(=O)N[C@@H](C)C(=O)N1CCC[C@H]1c1ncc(-c2ccc(C#Cc3ccc(-c4cnc([C@@H]5CCCN5C(=O)[C@H](NC(=O)OC)c5ccccc5)[nH]4)cc3)cc2)[nH]1 ; EC50 observed: < 1 nM

Sample COC(=O)N[C@@H](C(=O)N1CCC[C@H]1c1ncc(-c2ccc(C#Cc3ccc(C(=O)NC[C@@H]4CCCN4C(=O)[C@H](NC(=O)N4CCN(C)CC4)c4ccccc4)cc3)cc2)[nH]1)c1ccccc1 ; EC50 observed: < 1 nM

Sample COC(=O)N[C@@H](CC(C)C)C(=O)N1CCC[C@H]1c1ncc(-c2ccc(C#Cc3ccc(-c4cnc([C@@H]5CCCN5C(=O)[C@H](CC(C)C)NC(=O)OC)[nH]4)cc3)cc2)[nH]1 ; EC50 observed: < 1 nM

Sample COC(=O)N[C@@H](C(=O)N1CCC[C@H]1c1ncc(C#Cc2ccc(-c3ccc(-c4cnc([C@@H]5CCCN5C(=O)[C@H](NC(=O)OC)c5ccccc5)[nH]4)cc3)cc2)[nH]1)c1ccccc1 ; EC50 observed: < 1 nM

Sample COC(=O)N[C@@H](C)C(=O)N1CCC[C@H]1c1ncc(-c2ccc(C#Cc3ccc(-c4cnc([C@@H]5CCCN5C(=O)[C@H](C)NC(=O)OC)[nH]4)cc3)cc2)[nH]1 ; EC50 observed: < 1 nM

Sample COC(=O)N[C@@H](C(=O)N[C@@H](C)c1ncc(-c2ccc(C#Cc3ccc(-c4cnc([C@@H]5CCCN5C(=O)[C@H](NC(=O)OC)C(C)C)[nH]4)cc3)cc2)[nH]1)C(C)C ; EC50 observed: > 1000 nM

Sample CN1CCC[C@@H]1C(=O)N[C@@H](C(=O)N1CCC[C@H]1c1ncc(-c2ccc(C#Cc3ccc(-c4cnc([C@@H]5CCCN5C(=O)[C@H](NC(=O)C5CC5)c5ccccc5)[nH]4)cc3)cc2)[nH]1)c1ccccc1 ; EC50 observed: < 1 nM

Sample CC(C)[C@@H](C(=O)N1CCC[C@H]1c1ncc(-c2ccc(C#Cc3ccc(-c4cnc([C@@H]5CCCN5C(=O)[C@H](C(C)C)N5CCOC5=O)[nH]4)cc3)cc2)[nH]1)N1CCOC1=O ; EC50 observed: 10 to 999 nM
